Measured values drawn from ChEMBL document CHEMBL4689842 for this set.

system: Fibroblast; assay: Multiplex assay against human fibroblast; format: toxicity, cell-based; details: 24 h, 1 µM, compound concentration 1 uM, replicate 2
measurement.kind: Population Apoptotic (%)
Give bare numbers, in %.

# annotated cases, reported Population Apoptotic (%) shown
compound	Population Apoptotic (%)
CC[C@H](Nc1ncnc2[nH]cnc12)c1nc2cccc(F)c2c(=O)n1-c1ccccc1 [IDELALISIB]	40
Cc1ccc(S(=O)(=O)NC2c3ccccc3Oc3ccccc32)cc1	25
Cc1ccc(NC(=O)Nc2cc(C(F)(F)F)ccc2F)cc1Nc1ccc2c(c1)NC(=O)/C2=C\c1ccc[nH]1	100

# per-item lookup of Population Apoptotic (%); items listed below
1. CCCCCNC(=N)N/N=C/c1c[nH]c2ccc(OC)cc12.O=C(O)/C=C\C(=O)O [TEGASEROD MALEATE]
2. CC[C@@H]1C(=O)N(C)c2cnc(Nc3ccc(C(=O)NC4CCN(C)CC4)cc3OC)nc2N1C1CCCC1 [BI-2536]
3. Cc1c(P(=S)(c2ccccc2)c2ccccc2)n2ccccc2[n+]1C/C=C/c1ccccc1.[Br-]
4. Cl.NC[C@@H]1O[C@H](C23CC4CC(CC(C4)C2)C3)Cc2c1ccc(O)c2O

[87, 100, 75, 42]
